System: SU-DHL-6 cells (diffuse large-cell lymphoma cell line)
assay.comment: Cell growth inhibition test
Type: cell-based
test.conditions: SU-DHL-6 cells, 3 days culture, Table 96; read-out: Cell growth inhibition IC50
pIC50: −log10 of the molar value.
property: pIC50

# compound, measured.on, pIC50
data = [
    ("NC(=O)c1ccc(NC2CCCCC2N)cc1Nc1ccccc1Br (stereo not drawn) [A, reference compound]", "SU-DHL-6 cells (diffuse large-cell lymphoma cell line)", 5.70),
    ("NC(=O)c1ccc(NC2CCCCC2N)cc1Nc1cccc2c1OCO2 (stereo not drawn) [B, reference compound]", "SU-DHL-6 cells (diffuse large-cell lymphoma cell line)", 5.72),
]

###

measured.on: human Syk protein (Homo sapiens (Human))
assay.comment: Syk kinase inhibition test
Format: biochemical
test.conditions: Table 95; read-out: SYK inhibitory activity IC50
pIC50: −log10 of the molar value.
property: pIC50

Below, 4 compounds whose answers are already recorded.
# compound, pIC50
measured = [
    ("CCn1nc(C)c2ccc(Nc3nc(N[C@@H]4CCCC[C@@H]4N)nnc3C(N)=O)cc21 [Example 50]", 9.38),
    ("Cn1cc2cc(Nc3nc(N[C@@H]4CCCC[C@@H]4N)nnc3C(N)=O)cc(-c3ccccc3)c2n1 [Example 65]", 9.64),
    ("COC[C@H](N)[C@@H](C)Nc1nnc(C(N)=O)c(Nc2cc(-c3ccccc3)c3nn(C)cc3c2)n1 [Example 258]", 9.54),
    ("Cn1cc(-c2cc(Nc3nc(N[C@@H]4CCCC[C@@H]4N)nnc3C(N)=O)c3cnn(C)c3c2)cn1 [Example 13]", 9.31),
]

P = CCn1nc(C)c2cc(Nc3nc(N[C@@H]4CCCC[C@@H]4N)nnc3C(N)=O)ccc21 [Example 56]
Q = NC(=O)c1nnc(N[C@@H]2CCCC[C@@H]2N)nc1Nc1ccc2sccc2c1 [Example 220]
R = Cc1cccc(Nc2cc(NCCN(C)C)ccc2C(N)=O)c1 [C, reference compound]
S = COC[C@H](N)[C@@H](C)Nc1nnc(C(N)=O)c(Nc2cc(C)c3nn(C(C)(C)C)cc3c2)n1 [Example 274]
Which order do these items take when sorted by rising pIC50? List them. Your task in answering is to list the labels in the requested order.
R, S, P, Q
(R: 6.21, S: 9.02, P: 9.30, Q: 9.59)

###

measured.on: human Syk protein (Homo sapiens (Human))
assay.comment: Syk kinase inhibition test
Type: biochemical
test.conditions: Table 95; read-out: SYK inhibitory activity IC50
property: IC50 (nM)

# molecule, property, unit.name, observed.measurement
data = [
    ("Cn1ccc(-n2ccc3c(Nc4nc(NCC5(N)CCC5)nnc4C(N)=O)cccc32)n1 [Example 106]", "IC50", "nM", 0.85),
]

P = NC(=O)c1nnc(N[C@@H]2CCCC[C@@H]2N)nc1Nc1ccc2ncccc2c1 [Example 1]
Q = NC(=O)c1nnc(N[C@@H]2CCCC[C@@H]2N)nc1Nc1cncc(C2CC2)c1 [Example 16]
Lab note: check whether P or Q has the lower measured IC50. # answer = label of selected item
P
(P: 0.4 nM, Q: 0.94 nM)

###

measured.on: human Syk protein (Homo sapiens (Human), UniProt P43405)
assay.comment: Syk kinase inhibition test
Type: biochemical
test.conditions: Table 95; read-out: SYK inhibitory activity IC50
pIC50: −log10 of the molar value.
property: pIC50

# molecule, pIC50
rows = [
    ("NC(=O)c1nnc(N[C@@H]2CCCC[C@@H]2N)nc1Nc1ccc2cnn(C(F)F)c2c1", 9.44),
    ("Cn1ccc2c(Nc3nc(N[C@@H]4CCCC[C@@H]4N)nnc3C(N)=O)cccc21", 9.44),
    ("CCn1ncc2ccc(Nc3nc(N[C@@H]4CCCC[C@@H]4N)nnc3C(N)=O)cc21", 9.37),
    ("COC[C@H](N)[C@@H](C)Nc1nnc(C(N)=O)c(Nc2cc(C)cc3c2ccn3C)n1", 9.46),
    ("Cc1cc(Nc2nc(N[C@@H]3CCCC[C@@H]3N)nnc2C(N)=O)c2ccn(C)c2c1", 9.48),
    ("Cn1cc2cc(Nc3nc(N[C@@H]4CCOC[C@@H]4N)nnc3C(N)=O)cc(-c3ccccc3)c2n1", 9.42),
]

a = N#Cc1cc(Nc2nc(N[C@@H]3CCCC[C@@H]3N)nnc2C(N)=O)c2ccsc2c1
b = NC(=O)c1ccc(NC2CCCCC2N)cc1Nc1ccccc1Br (centres unmarked) [A, reference compound]
Smaller pIC50 value? Options are a and b Returns: label corresponding to the selected item.
b

Sourced from patent US9145414B2
